Origin of measurements: ChEMBL document CHEMBL1148261

molecular target: Potassium voltage-gated channel subfamily A member 5 (Homo sapiens, UniProt P22460); test: Inhibitory effect against human voltage-gated potassium channel subunit Kv1.5 expressed in Xenopus oocytes
Sequence (P22460 whole entry): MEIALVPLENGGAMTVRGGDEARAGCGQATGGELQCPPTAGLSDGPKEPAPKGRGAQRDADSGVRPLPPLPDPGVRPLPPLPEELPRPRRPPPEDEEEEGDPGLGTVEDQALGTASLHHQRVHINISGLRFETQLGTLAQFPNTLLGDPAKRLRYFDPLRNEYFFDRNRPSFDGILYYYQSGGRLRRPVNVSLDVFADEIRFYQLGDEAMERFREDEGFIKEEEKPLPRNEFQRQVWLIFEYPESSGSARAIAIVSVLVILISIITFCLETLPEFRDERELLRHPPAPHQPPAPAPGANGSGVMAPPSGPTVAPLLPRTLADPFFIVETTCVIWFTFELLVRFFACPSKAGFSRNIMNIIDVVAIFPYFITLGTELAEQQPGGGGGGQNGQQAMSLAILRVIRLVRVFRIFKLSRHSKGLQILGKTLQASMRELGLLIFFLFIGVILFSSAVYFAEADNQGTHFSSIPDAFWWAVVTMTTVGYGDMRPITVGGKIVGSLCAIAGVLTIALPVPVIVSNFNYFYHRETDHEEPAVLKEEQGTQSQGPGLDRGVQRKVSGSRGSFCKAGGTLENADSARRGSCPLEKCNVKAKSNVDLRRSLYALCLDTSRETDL
Measure name: pIC50
Note on units: pIC50 is unitless, being -log10 of a concentration expressed in mol/L.

Compound: Cc1ccc(S(=O)(=O)Nc2ccccc2C(=O)NCCc2ccccc2)cc1
Measure name: pIC50
Measurement: 5.17
--
Compound: CC[C@H](NC(=O)c1ccccc1NS(=O)(=O)CC)c1ccccc1
Measure name: pIC50
Measurement: 5.00
--
Compound: CC[C@H](NC(=O)c1ccccc1NS(=O)(=O)c1ccc(C)cc1)c1ccccc1
Measure name: pIC50
Measurement: 6.15
--
Compound: CC[C@H](NC(=O)c1cc(F)ccc1NS(=O)(=O)c1ccc(Cl)cc1)c1ccccc1
Measure name: pIC50
Measurement: 5.42
--
Compound: O=C(NCc1ccccc1)c1cc(Cl)ccc1NS(=O)(=O)c1ccc(Cl)cc1
Measure name: pIC50
Measurement: 5.25

q: Observed pIC50 on Potassium voltage-gated channel subfamily A member 5 (Homo sapiens, UniProt P22460) for Cc1ccc(S(=O)(=O)Nc2ccccc2C(=O)NC(c2ccccc2)C2CC2)cc1 (configuration not stated) , please.
a: 5.80

q: Would you mind doing CC[C@H](NC(=O)c1ccccc1NS(=O)(=O)c1cccc2cnccc12)c1ccccc1 as well?
a: 5.05

q: Please do the same for Cc1ccc(S(=O)(=O)Nc2ccccc2C(=O)N(Cc2cccnc2)Cc2cccnc2)cc1 as well.
a: 5.66

q: Ok, now CC[C@H](NC(=O)c1cc(C(C)=O)ccc1NS(=O)(=O)c1ccc(C)cc1)c1ccccc1
a: 5.42

q: Then this compound: CC[C@H](NC(=O)c1ccccc1NS(=O)(=O)c1ccc(C(F)(F)F)cc1)c1ccccc1
a: 5.40

q: CC[C@H](NC(=O)c1ccccc1NS(=O)(=O)c1cccc2cccnc12)c1ccccc1 ?
a: 6.22

q: // same read-out, input: CC[C@H](NC(=O)c1ccccc1NS(=O)(=O)c1ccccc1)c1ccccc1
a: 5.89
